biological target: UniProt Q13085; assay: In vitro ACC1 inhibition assay (ADP-Glo); assay type: biochemical; conditions: read-out: ACC1
pIC50: −log10 of the molar value.
Form field: pIC50 (one value per entry).

Some molecules with recorded pIC50:
In [3]: df
Out[3]:
                                   molecule  value_reported
0  Cc1c(-c2ncco2)sc2c1c(=O)n(C(C)(C)C(=O)O)c(=O)n2CC(Oc1ccccc1)c1ccccc1 (stereo in doubt)          > 6.00
1  CCc1ccccc1[C@H](Cn1c(=O)n(C(C)(C)C(=O)O)c(=O)c2c(C)c(-c3ncco3)sc21)OCCO          > 7.00
2  CCOc1ccccc1[C@H](Cn1c(=O)n(C(C)(C)C(=O)O)c(=O)c2c(C)c(-c3ncco3)sc21)OCCO          > 7.00

Consider the additional molecule presented here.
Exam item: # query: pIC50 of entry COc1ccccc1[C@@H](Cn1c(=O)n(C(C)(C)C(=O)O)c(=O)c2c(C)c(-c3ncco3)sc21)OC(C)C
Marked response: > 7.00
